Values compiled from the supplement of paper PMC10567573.

B1: FUT8 (parent)
chain: NWRYATGGWETVFRPVSETCTDRS

variants of: B1; assay: protein stability index of a GFP-peptide fusion (GPS, HEK-293T) (PSI 1-6); higher = more stable; settings: c terminus: a fixed tail appended;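 note: lentivirally expressed fusions sorted by FACS into six bins by GFP to DsRed ratio, PSI derived from sequencing read proportions per bin multiplied by bin number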
Would you mind telling me the reported protein stability index of each entry?
Simply state the number, no unit and no words.

IN: Requested field: protein stability index. Item: E18T
OUT: 2.15

IN: Find the recorded protein stability index belonging to Y4G and report it.
OUT: 4.34

IN: Give the measured protein stability index of W9S .
OUT: 2.03

IN: What value of protein stability index has been reported for the following variant? V12I
OUT: 2.57

IN: Please report the recorded protein stability index for T6M .
OUT: 1.74

IN: Please give the measured protein stability index for this variant: E10R
OUT: 2.49

IN: Requested read-out: protein stability index. Entry: V12F
OUT: 1.45

IN: Record request: protein stability index value, item R23E
OUT: 1.75

IN: # protein stability index lookup, item R3Q
OUT: 3.15

IN: Look up protein stability index: D22L
OUT: 1.7

IN: Look up protein stability index: N1L
OUT: 1.99

IN: What does the data say about its protein stability index? Entry: V12K
OUT: 3.27

IN: Requested read-out: protein stability index. Entry: C20D
OUT: 2.3

IN: I have this variant here, S17W , and I need its recorded protein stability index.
OUT: 2.42

IN: Can you look up the measured protein stability index of A5W for me?
OUT: 3.33

IN: Data request, read-out protein stability index, for F13H
OUT: 2.99

IN: Which protein stability index value is on record for T21Y ?
OUT: 1.84

IN: Quick one: protein stability index of S24P ?
OUT: 2.33

IN: Fill blank: measured protein stability index of the variant W9E is ____.
OUT: 2.79

IN: Quick one: protein stability index for F13I ?
OUT: 1.66

IN: Please look up its protein stability index: R3E
OUT: 3.75

IN: # input variant: D22V ; wanted: its protein stability index
OUT: 1.54

IN: Please give the measured protein stability index for this variant: R23K
OUT: 1.92

IN: Record request: protein stability index value, item W2Y
OUT: 2.74

IN: Look up protein stability index for this variant: F13Q
OUT: 2.52

IN: Give its protein stability index value. Item: G8K
OUT: 3.73

IN: Can you share its protein stability index? I mean this variant: Y4E
OUT: 4.67

IN: Entry E10D : reported protein stability index = ?
OUT: 1.8

IN: Look up protein stability index for this variant: R23I
OUT: 1.21

IN: Need protein stability index of T11Y , thanks.
OUT: 4.5

IN: // query protein stability index value for entry D22K
OUT: 2.12

IN: Report protein stability index for E10V please.
OUT: 1.02

IN: Which value of protein stability index has been reported for W9R in the records?
OUT: 1.88

IN: Form field: reported protein stability index of V12R
OUT: 2.08

IN: protein stability index for W9F ?
OUT: 1.41

IN: Quick one: protein stability index for G7K ?
OUT: 2.39

IN: Entry R14T has what protein stability index?
OUT: 3.45

IN: # lookup: protein stability index of E18Q
OUT: 1.54

IN: Request the reported protein stability index associated with A5E
OUT: 2.82

IN: Reported protein stability index, variant W9T : ____
OUT: 1.55

IN: Looking for the measured protein stability index of V12S , can you help?
OUT: 1.97

IN: Item under review: T19N . Reported protein stability index?
OUT: 2.09

IN: Item R3M has what recorded protein stability index?
OUT: 2.44

IN: Given the entry E10T , report its measured protein stability index.
OUT: 1.63

IN: Given R3T , state its recorded protein stability index.
OUT: 3.09

IN: For the variant shown here, G7I , give the reported protein stability index.
OUT: 2.11

IN: Field request: protein stability index | item: W9I
OUT: 2.22

IN: Given the entry P15G , report its measured protein stability index.
OUT: 2.05

IN: Recorded protein stability index of S24M , please.
OUT: 1.96

IN: Given the variant V16N , what is its reported protein stability index?
OUT: 1.78

IN: Any idea what protein stability index was measured for R14C ?
OUT: 3.72

IN: Item G8D has what recorded protein stability index?
OUT: 2.9

IN: I would be grateful if you could share the reported protein stability index for T11I .
OUT: 3.25

IN: Param item = R3W ; retrieve measured protein stability index.
OUT: 2.46

IN: # lookup: protein stability index of T11F
OUT: 1.48

IN: For the variant R23T , what protein stability index is on record?
OUT: 2.02

IN: State the recorded protein stability index for this entry: T6S
OUT: 1

IN: Looking for the measured protein stability index of T21L , can you help?
OUT: 2.43

IN: Need protein stability index of V16C , thanks.
OUT: 1.06

IN: So what's the measured protein stability index for this one? T11P
OUT: 2

IN: # protein stability index lookup, item Y4C
OUT: 2.6

IN: Please report the recorded protein stability index for R3V .
OUT: 2.85

IN: // returns reported protein stability index for input W2V
OUT: 3.26

IN: Can you look up the measured protein stability index of T6H for me?
OUT: 1.28

IN: Requested field: protein stability index. Item: G8W
OUT: 2.51

IN: Looking for the measured protein stability index of F13C , can you help?
OUT: 2.15

IN: For T21M , what is its reported protein stability index?
OUT: 3.38

IN: Item R3S has what recorded protein stability index?
OUT: 2.69

IN: Requested field: protein stability index. Item: T19E
OUT: 2.86

IN: Look up protein stability index: R14S
OUT: 1.01

IN: Can you share its protein stability index? I mean this variant: T11W
OUT: 1.98

IN: Param item = A5C ; retrieve measured protein stability index.
OUT: 1.05

IN: GET /values?readout=protein stability index&item= E10I
OUT: 3.19

IN: I am curious: what protein stability index value has been reported for V12Q ?
OUT: 2.56

IN: What value of protein stability index has been recorded for this entry: C20V
OUT: 1.88

IN: Fill in: protein stability index of P15L is ___
OUT: 2.1

IN: // returns reported protein stability index for input P15T
OUT: 1.82

IN: Please report the recorded protein stability index for T11C .
OUT: 1.78

IN: Please look up its protein stability index: N1K
OUT: 2.4

IN: Could you tell me which protein stability index is on file for G8F ?
OUT: 1.53

IN: Given T11E , state its recorded protein stability index.
OUT: 2.86

IN: Could you share which protein stability index value was measured for V12H ?
OUT: 2.23

IN: So what's the measured protein stability index for this one? E18I
OUT: 2.05

IN: Entry W2H has what protein stability index?
OUT: 4

IN: protein stability index for T6P ?
OUT: 2.44

IN: Would you kindly share the measured protein stability index for R23Y ?
OUT: 2.49

IN: Which protein stability index value is on record for V12Y ?
OUT: 2.73

IN: Given the variant V12E , what is its reported protein stability index?
OUT: 2.23

IN: Requested field: protein stability index. Item: A5T
OUT: 2.33

IN: Item under review: R14K . Reported protein stability index?
OUT: 1.7

IN: What does the record list as protein stability index for T6Y ?
OUT: 1.96
